Tested on: HIV-1BaL
Experiment: HIV MAGI assay, HIV-1BaL
Assay type: cell-based
Details: Human immunodeficiency virus 1, MAGI, Table 3
Reported IC90 by item:
Express your answer in µM, writing the number without its unit.

Check out these entries, answers already filled in.
{"record_smiles": "CN1CCN(CC[C@H](NC(=O)C2CCC(F)(F)CC2)c2ccccc2)C[C@@H]1CN(CCCCN)[C@H]1CCCc2cccnc21", "value": 66.8}
{"record_smiles": "Cn1cncc1CN1CCN(CC[C@H](NC(=O)C2CCC(F)(F)CC2)c2ccccc2)C[C@@H]1CN(CCCCN)[C@H]1CCCc2cccnc21", "value": 7.35}

Notebook: `NCCCCN(C[C@H]1CN(CC[C@H](NC(=O)C2CCC(F)(F)CC2)c2ccccc2)CCN1Cc1cnc[nH]1)[C@H]1CCCc2cccnc21` , IC90 read as 23

Notebook: `NCCCCN(C[C@H]1CN(CC[C@H](NC(=O)C2CCC(F)(F)CC2)c2ccccc2)CCN1Cc1cncs1)[C@H]1CCCc2cccnc21` , IC90 read as 4.38

Notebook: `NCCCCN(C[C@H]1CN(CC[C@H](NC(=O)C2CCC(F)(F)CC2)c2ccccc2)CCN1CC1COC1)[C@H]1CCCc2cccnc21` , IC90 read as 97.1

* * *

Test system: HIV-1BaL
Assay: HIV MAGI assay, HIV-1BaL
Format: cell-based
Conditions: Human immunodeficiency virus 1, MAGI, Table 3
quantity_name: IC90

{"record_smiles": "NCCCCN(C[C@H]1CN(CC[C@H](NC(=O)C2CCC(F)(F)CC2)c2ccccc2)CCN1Cc1ccncc1)[C@H]1CCCc2cccnc21", "measured_on": "HIV-1BaL", "value": "22.7 µM"}

Notebook: `NCCCCN(C[C@H]1CN(CC[C@H](NC(=O)C2CCC(F)(F)CC2)c2ccccc2)CCN1Cc1cnco1)[C@H]1CCCc2cccnc21` , IC90 read as 36.7 µM

Notebook: `NCCCCN(C[C@H]1CN(CC[C@H](NC(=O)C2CCC(F)(F)CC2)c2ccccc2)CCN1)[C@H]1CCCc2cccnc21` , IC90 read as 29.1 µM

* * *

Molecular target: UniProtKB P10635
Sequence (P10635 whole entry): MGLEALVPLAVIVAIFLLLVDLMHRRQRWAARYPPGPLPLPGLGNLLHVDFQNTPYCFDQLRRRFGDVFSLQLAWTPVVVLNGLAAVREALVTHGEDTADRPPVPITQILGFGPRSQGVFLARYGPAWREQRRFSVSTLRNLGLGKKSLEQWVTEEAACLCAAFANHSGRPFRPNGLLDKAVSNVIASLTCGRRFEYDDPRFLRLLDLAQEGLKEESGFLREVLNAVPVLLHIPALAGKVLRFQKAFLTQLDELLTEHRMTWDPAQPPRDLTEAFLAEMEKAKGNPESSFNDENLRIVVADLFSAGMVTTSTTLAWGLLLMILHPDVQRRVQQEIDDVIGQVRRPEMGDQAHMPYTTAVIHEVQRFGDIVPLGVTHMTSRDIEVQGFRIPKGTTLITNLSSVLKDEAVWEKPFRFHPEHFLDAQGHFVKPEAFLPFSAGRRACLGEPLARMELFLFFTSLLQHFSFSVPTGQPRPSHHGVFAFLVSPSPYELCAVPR
Assay: Recombinant CYP inhibition assay (fluorometric), CYP2D6
Assay type: in vitro ADME
Settings: human, recombinant CYP2D6, pH 7.4, probe AMMC (4 μM); at 1 μM; read-out: Inhibition of P450 2D6
Experimental: Recombinant CYP Inhibition Assay: In a drug discovery program, a rapid screening for cyctochrome P450 (CYP450) inhibitors is a part of the existing standard for avoiding the development of drugs likely to give clinical pharmacokinetic drug-drug interactions and associated toxicities. […] Both enzymatic assays were conducted in a 96-well microtiter plate (Black, Corning Costar) with a final volume of 100 μL. […] Both were used as controls for background fluorescence. […]
quantity_name: inhibition at 60 min, 1 µM (%)
Express your answer in %, writing the number without its unit.

Record NCCCCN(Cc1nc2ccccc2[nH]1)[C@H]1CCCc2cccnc21 [AMD11070, reference compound] has UniProtKB P10635 inhibition at 60 min, 1 µM equal to 100
